# Assayed target: RXRα-LBD (Homo sapiens, UniProt P19793)

Compound | Assayed target | Kd (µM)
O=[N+]([O-])/C=C/c1c2ccccc2cc2ccccc12 [Z-12, (E)-9-(2-nitrovinyl)anthracene] | RXRα-LBD (Homo sapiens, UniProt P19793) | 1.95

---

# System: IκBα, IKKα/β in MCF-7 cells
# Measurement notes: TNFα-induced IκBα degradation and IKKα/β phosphorylation, immunoblotting
# Assay type: cell-based, human
# Condition notes: MCF-7 cells, TNFα 10 ng/ml; Z-10 7.5 µM, Z-12 5 µM

Compound | TNFα-induced IκBα degradation
O=[N+]([O-])/C=C/c1cccc2ccccc12 [Z-10, (E)-1-(2-nitrovinyl)naphthalene] | significantly inhibited
O=[N+]([O-])/C=C/c1c2ccccc2cc2ccccc12 [Z-12, (E)-9-(2-nitrovinyl)anthracene] | significantly inhibited

---

Target protein (sequence): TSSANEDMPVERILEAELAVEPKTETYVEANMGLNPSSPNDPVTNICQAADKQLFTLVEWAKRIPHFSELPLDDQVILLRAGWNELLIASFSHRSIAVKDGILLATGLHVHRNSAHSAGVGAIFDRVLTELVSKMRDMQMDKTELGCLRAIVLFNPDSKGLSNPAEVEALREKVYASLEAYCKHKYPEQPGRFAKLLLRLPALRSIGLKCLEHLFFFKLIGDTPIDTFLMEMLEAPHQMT
pIC50: −log10 of the molar value.

Compound | pIC50
O=[N+]([O-])/C=C/c1c2ccccc2cc2ccccc12 [Z-12, (E)-9-(2-nitrovinyl)anthracene] | 6.09
O=[N+]([O-])/C=C/c1ccc2ccccc2c1 [Z-11, (E)-2-(2-nitrovinyl)naphthalene] | 6.48

---

# Test system: MCF-7 cells
# Measurement notes: Apoptosis
# Type: cell-based, human
# Condition notes: MCF-7 cells, with TNFα 10 ng/ml, 9 h; Z-10 7.5 µM, Z-12 5 µM
Attribute measured: apoptosis (PARP cleavage, nuclear fragmentation) together with TNFα

Molecule | Reported
O=[N+]([O-])/C=C/c1c2ccccc2cc2ccccc12 [Z-12, (E)-9-(2-nitrovinyl)anthracene] | significant apoptosis
O=[N+]([O-])/C=C/c1cccc2ccccc12 [Z-10, (E)-1-(2-nitrovinyl)naphthalene] | significant apoptosis
CC1=C(/C=C/C(C)=C\C=C\C(C)=C\C(=O)O)C(C)(C)CCC1 [9-cis-RA, 9-cis-retinoic acid] | little effect
CCCCCOc1cc2c(cc1-c1cc(/C=C/C(=O)O)ccc1O)C(C)(C)CCC2(C)C [UVI3003] | little effect
